biological target: T1, LA peptide; test: BLI (Octet), peptide on sensor, purified protein in solution
T1 construct: The peptide was coated on the Octet sensor; also called peptide with N-terminal leucine and penultimate alanine
property: Octet response after 200 sec association (nm)
// units = nm; emit number, no label

Worked cases, Octet response after 200 sec association given:
1) PS833 (designed binder, Variant of PS557) MPTAASATESAIEDTPAPARPVVDGRTKPKRQPRYHVVLWDDDDHTYQYVVVMLQSLFGHPPERGYRLAKEMDTQGRVIVLTTTREHAELKRDQIHAFGYDRLLARSKGSMKASIEAEE
10.7
2) PS824 (designed binder, Variant of PS557) MPTAASATESAFEDTPAPARPEVDGRTKPKRQPRYHVVLWDDDDHTYQYVVVMLRSLFGHPPERGYRLAKEMDTQGRVIVLTTTREHAELKRDQIHAFGYDRLLARSKGSMKASIEAEE
13.8
3) PS852 (designed binder, Variant of PS557) MPTAASATESAIEDTPAPARPEVDGRTKPKHQPRYHVVLWDDDDHTYQYVVVMLRSLFGHPPERGYRLAKEMDTQGRVIVLTTTREHAELKRDQIHAFGYDRLLARSKGSMKASIEAEE
9.7

Q: Given the binder PS828 (designed binder, Variant of PS557) MPTAASATESAIEDTPAPARPEVDGRTKPKRQPRYHVVLWDDDDHTYQYVVVMLQSLFGHPRERGYRLAKEVDTLGRVIVLTTTREHAELKRDQIHAFGYDRLLARSKGSMKASIEAEE , what is its reported Octet response after 200 sec association?
Result: 7.75

These data points were gathered from patent US20240272170A1.
